Hey, just so you know, these numbers are from paper PMC7450057.

- protocol-summary: Permeability by lipid-PAMPA method (Pharmaron)
- Type: in vitro ADME
- experimental-setup: PAMPA, Recovery%

molecule	recovery at 16 h, 10 μM, %
CN(Cc1cnc2nc(N)nc(N)c2n1)c1ccc(C(=O)N[C@@H](CCC(=O)O)C(=O)O)cc1 [Methotrexate, methotrexate, reference compound]	105
CN(CCCNC(=O)CNc1cccc2c1C(=O)N(C1CCC(=O)NC1=O)C2=O)C(C)(C)C=C(C#N)C(=O)N1CCC[C@@H](n2nc(-c3ccc(Oc4ccccc4)cc3)c3c(N)ncnc32)C1 (stereo partly shown)	25.1
CN(CCCNC(=O)CNc1cccc2c1C(=O)N(C1CCC(=O)NC1=O)C2=O)CCCC(=O)N1CCCC(n2nc(-c3ccc(Oc4ccccc4)cc3)c3c(N)ncnc32)C1 (stereo not shown)	30
CN(CC=CC(=O)N1CCCC(n2nc(-c3ccc(Oc4ccccc4)cc3)c3c(N)ncnc32)C1)CCCNC(=O)CNc1cccc2c1C(=O)N(C1CCC(=O)NC1=O)C2=O (stereo not shown)	17.4
